Tested on: Sindbis virus TE/5'2J-GFP;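 also: Interferon-defective BHK-21 derivatives, ZAP line overexpressing the rat ZAP N-terminal zinc finger domain fused to Zeocin resistance, GFP scored within live singlet TagRFP+ cells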
ASSAY DETAILS: percent infected (GFP+ in RFP+ ISG-expressing cells); higher = more infection (less antiviral activity)
CONDITION PARAMETERS: experiment: confirmatory screen 2; BHK/HA-Zeo (control)
ASSAY READOUT: percent infected (%)
Provide the reading as a plain figure in %.

{"SEQUENCE": "MMAQSKANGSHYALTAIGLGMLVLGVIMAMWNLVPGFSAAEKPTAQGSNKTEVGGGILKSKTFSVAYVLVGAGVMLLLLSICLSIRDKRKQRQGEDLAHVQHPTGAGPHAQEEDSQEEEEEDEEAASRYYVPSYEEVMNTNYSEARGEEQNPRLSISLPSYESLTGLDETTPTSTRADVEASPGNPPDRQNSKLAKRLKPLKVRRIKSEKLHLKDFRINLPDKNVPPPSIEPLTPPPQYDEVQEKAPDTRPPD [TMEM51]", "percent infected, %": 95.1}
{"SEQUENCE": "MNMTQARVLVAAVVGLVAVLLYASIHKIEEGHLAVYYRGGALLTSPSGPGYHIMLPFITTFRSVQTTLQTDEVKNVPCGTSGGVMIYIDRIEVVNMLAPYAVFDIVRNYTADYDKTLIFNKIHHELNQFCSAHTLQEVYIELFDQIDENLKQALQKDLNLMAPGLTIQAVRVTKPKIPEAIRRNFELMEAEKTKLLIAAQKQKVVEKEAETERKKAVIEAEKIAQVAKIRFQQKVMEKETEKRISEIEDAAFLAREKAKADAEYYAAHKYATSNKHKLTPEYLELKKYQAIASNSKIYFGSNIPNMFVDSSCALKYSDIRTGRESSLPSKEALEPSGENVIQNKESTG [ERLIN1]", "percent infected, %": 95.8}
{"SEQUENCE": "MPVERMRMRPWLEEQINSNTIPGLKWLNKEKKIFQIPWMHAARHGWDVEKDAPLFRNWAIHTGKHQPGVDKPDPKTWKANFRCAMNSLPDIEEVKDKSIKKGNNAFRVYRMLPLSERPSKKGKKPKTEKEDKVKHIKQEPVESSLGLSNGVSDLSPEYAVLTSTIKNEVDSTVNIIVVGQSHLDSNIENQEIVTNPPDICQVVEVTTESDEQPVSMSELYPLQISPVSSYAESETTDSVPSDEESAEGRPHWRKRNIEGKQYLSNMGTRGSYLLPGMASFVTSNKPDLQVTIKEESNPVPYNSSWPPFQDLPLSSSMTPASSSSRPDRETRASVIKKTSDITQARVKSC [IRF2]", "percent infected, %": 94.3}

What does the data say about its percent infected? Entry: MGILYSEPICQAAYQNDFGQVWRWVKEDSSYANVQDGFNGDTPLICACRRGHVRIVSFLLRRNANVNLKNQKERTCLHYAVKKKFTFIDYLLIILLMPVLLIGYFLMVSKTKQNEALVRMLLDAGVEVNATDCYGCTALHYACEMKNQSLIPLLLEARADPTIKNKHGESSLDIARRLKFSQIELMLRKAL [ANKRD22]
96.4
